These measurements were taken from patent US20200362047A1.

- Assay Target: T1, human CD137-human Fc chimeric protein (Acro Biosystems cat no. 41B-H5258) (human, UniProt Q07011 24-186)
- T1 construct: Bought protein; The Octet Protein G and Biacore experiments name no catalogue number; also called human CD137Fc recombinant protein; human CD137-Fc recombinant protein; not shown: human IgG1 Fc tag
- Method Description: BLI (Octet RED384), CD137-Fc on Protein G sensors, 1:1 model
Quantity Kind: Kd (nM)

binder="Humabody VH 1.16 (VHH, human single VH domain) VHH: EVQLVESGGGLVQPGGSLRLSCVASGFTFSNYWMMWFRQAPGKGLEWVANINQDGSEKYFVDSVEGRFTISRDNAKNSLYLQMNSLRAEDTAVYYCARGGDGYSSSHYGTDVWGQGTTVTVSS" quantity_kind=Kd unit_tag=nM test_value=2.4
binder="Humabody VH 1.52 (VHH, human single VH domain) VH: EVQLVESGGGLVQIGGSLRLSCAASGFTFSKYWMIWVRQAPEKGLEWVANINQDGSEKYYVDSVEGRFTISRDNANNSLFLQMNSLRAEDTAVYYCARGGDDYSISHFGMDVSGQGTRVTVSSHHHHHH" quantity_kind=Kd unit_tag=nM test_value=3.2

P: Humabody VH 1.18 (VHH, human single VH domain) VH: EVQLVESGGGLVQPGGSLRLSCAASGFTFSTHWMNWARQAPGKELEWVANINQDGSEKYYVDSVEGRFTISRDNANNSLYLQMNSLRAEDTAVYYCARGGVGYGDSHFGMDVWGLGTTVTVSSHHHHHH
Q: Humabody VH 1.11 (VHH, human single VH domain) VH: EVQLVESGGGLVQPGGSLRLSCEASGFTFSDYWMNWARQAPGKGLEWVANIKEDGSEKYYVDSVEGRFTISRDNAKNSTYLQMNSLRAEDTAVYYCARGGAGYSMSHYGMDVWGQGTTVTVSSHHHHHH
# return whichever of P and Q has the smaller Kd Please indicate the selected item by its label.
P
